TESTED SYSTEM: Substance-K receptor (Homo sapiens, UniProt P21452)
Sequence (P21452 whole entry): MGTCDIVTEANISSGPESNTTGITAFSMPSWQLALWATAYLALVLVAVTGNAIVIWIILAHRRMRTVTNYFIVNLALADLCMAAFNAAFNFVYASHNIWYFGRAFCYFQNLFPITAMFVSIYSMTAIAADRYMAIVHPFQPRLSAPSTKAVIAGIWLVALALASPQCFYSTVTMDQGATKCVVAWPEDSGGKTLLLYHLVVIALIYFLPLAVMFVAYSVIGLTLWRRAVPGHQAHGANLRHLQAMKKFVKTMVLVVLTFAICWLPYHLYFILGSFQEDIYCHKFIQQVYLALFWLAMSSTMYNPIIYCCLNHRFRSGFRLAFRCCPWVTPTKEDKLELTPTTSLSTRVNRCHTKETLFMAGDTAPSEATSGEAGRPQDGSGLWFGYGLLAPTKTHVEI
ASSAY PROCEDURE: Inhibition of binding of [3H]NKA to human Tachykinin receptor 2 (NK2) in mouse erythroleukemia cells
ASSAY ENDPOINT: Ki (nM)
Numeric only. Scale: nM

Q. Which Ki value belongs to COc1ccc(C2CCN(CC[C@H](CN(C)C(=O)c3cc(C#N)cc4ccccc34)c3ccc(Cl)c(Cl)c3)CC2)c([S@+](C)[O-])c1 ?
A. 0.34

* * *

// values below are reported pKB
Tested on: Substance-P receptor (Oryctolagus cuniculus)
ASSAY PROCEDURE: Tested for the binding affinity towards tachykinin receptor 1 (NK1) in rabbit pulmonary artery tissue
Form field (numeric): enter value without unit.

COMPOUND	pKB
CN(C[C@@H](CCN1CCC(c2ccc([S+](C)[O-])cc2[S+](C)[O-])CC1)c1ccc(Cl)c(Cl)c1)C(=O)c1cc(C#N)cc2ccccc12 (mixture of isomers)	7.33

Q. Which pKB value belongs to CNC(=O)C1(N2CCCCC2=O)CCN(CC[C@H](CN(C)C(=O)c2cc(C#N)cc3ccccc23)c2ccc(Cl)c(Cl)c2)CC1 ?
A. 7.33

Q. Which pKB value belongs to CN(C[C@@H](CCN1CCC(c2ccccc2[S@+](C)[O-])CC1)c1ccc(Cl)c(Cl)c1)C(=O)c1cc(C#N)c(C#N)c2ccccc12 ?
A. 7.76

Q. Which pKB value belongs to CN(C[C@@H](CCN1CCC(c2ccc(Br)cc2[S@+](C)[O-])CC1)c1ccc(Cl)c(Cl)c1)C(=O)c1cc(C#N)cc2ccccc12 ?
A. 8

Q. Which pKB value belongs to CN(C[C@@H](CCN1CCC(c2ccccc2[S@+](C)[O-])CC1)c1ccc(Cl)c(Cl)c1)C(=O)c1cc(C#N)cc2cc(O)ccc12 ?
A. 8.02

Q. Which pKB value belongs to CN(C[C@@H](CCN1CCC(c2ccc(C(N)=O)cc2[S+](C)[O-])CC1)c1ccc(Cl)c(Cl)c1)C(=O)c1cc(C#N)cc2ccccc12 (mixture of isomers) ?
A. 8.53

Source: ChEMBL document CHEMBL1135768
